# Method Summary: Peripheral blood pressure after intravenous dose
# Format: in vivo, New Zealand white rabbits
# Assay Context: 1 mg/kg i.v. dose
# Text: […] R. May, C. M. Hero, K. D. Butler, C. P. Page, JOURNAL OF PHARMACOLOGICAL METHODS, 24, pp 1-35, 1990. Peripheral blood pressure was monitored by a pressure sensor in the carotid artery.
Experimental Readout: BLOOD PRESSURE Δ% of NORM

CC(C)(C)OC(=O)NC(Cc1ccccc1)C(=O)N1CCCC1C(=O)NC(C=O)Cc1cnc[nH]1 [Compound 53, Boc-D-Phe-Pro-His-H] ... NONE
N=C(N)NCCCC(NC(=O)C1CCCN1C(=O)C(N)C(c1ccccc1)c1ccccc1)C(=O)CCC(=O)N1CCCCC1.O=C(O)C(F)(F)F.O=C(O)C(F)(F)F [Compound 6, D-Dpa-Pro-Arg--k--Gly-Pip] ... NONE
CCCCCC(NC(=O)C1CCCN1C(=O)C(N)Cc1ccccc1)P(=O)(Oc1ccccc1)Oc1ccccc1 [Compound 20, D-Phe-Pro-Pgl^P(OPh)2] ... NONE
CC1(C)C2CC3OB(C(CCCSC(=N)N)NC(=O)C4CCCN4C(=O)C(Cc4ccccc4)NC(=O)OCc4ccccc4)OC3(C)C1C2 [Compound 25, Z-D-Phe-Pro-BoroIrg-OPin] ... SMALL

----------
# Target Under Test: Urokinase (Homo sapiens, UniProt P00749)
# Method Summary: IC50 against urokinase
# Assay type: biochemical
# Assay Context: single value given, incubation not given; read-out: Urokinase no inc/inc
Reported log10(IC50) values are given for each entry in this list.
Hello, just confirming the data are log10 of IC50 with units of µM.

N=C(N)NCCCC(NC(=O)C1CCCN1C(=O)C(N)C(c1ccccc1)c1ccccc1)C(=O)CCC(=O)N1CCCCC1.O=C(O)C(F)(F)F.O=C(O)C(F)(F)F (stereo not drawn) ... 2.69
CCC(C)CC(NC(=O)[C@@H]1CCCN1C(=O)[C@@H](Cc1ccccc1)NC(=O)OCc1ccccc1)B1OC2CC3CC(C3(C)C)C2(C)O1 (stereo partly drawn) ... 0.96
CC1(C)C2CC3OB(C(CCCSC(=N)N)NC(=O)C4CCCN4C(=O)C(Cc4ccccc4)NC(=O)OCc4ccccc4)OC3(C)C1C2 (stereo not drawn) ... -1.12

Record COCCCC(NC(=O)C1CCCN1C(=O)C(Cc1ccccc1)NC(=O)OCc1ccccc1)B1OC2CC3CC(C3(C)C)C2(C)O1 (stereo not drawn) , field log10(IC50): 0.56

Record CC1(C)OB(C(Cc2ccccc2)NC(=O)C2CCCN2C(=O)C(Cc2ccccc2)NC(=O)OCc2ccccc2)OC1(C)C (stereo not drawn) , field log10(IC50): 0.82

----------
Reported IC50 values are given for each entry in this list.
# Target Under Test: Plasmin (Homo sapiens, UniProt P00747)
# Sequence (P00747 97-580 limits assumed, species assumed): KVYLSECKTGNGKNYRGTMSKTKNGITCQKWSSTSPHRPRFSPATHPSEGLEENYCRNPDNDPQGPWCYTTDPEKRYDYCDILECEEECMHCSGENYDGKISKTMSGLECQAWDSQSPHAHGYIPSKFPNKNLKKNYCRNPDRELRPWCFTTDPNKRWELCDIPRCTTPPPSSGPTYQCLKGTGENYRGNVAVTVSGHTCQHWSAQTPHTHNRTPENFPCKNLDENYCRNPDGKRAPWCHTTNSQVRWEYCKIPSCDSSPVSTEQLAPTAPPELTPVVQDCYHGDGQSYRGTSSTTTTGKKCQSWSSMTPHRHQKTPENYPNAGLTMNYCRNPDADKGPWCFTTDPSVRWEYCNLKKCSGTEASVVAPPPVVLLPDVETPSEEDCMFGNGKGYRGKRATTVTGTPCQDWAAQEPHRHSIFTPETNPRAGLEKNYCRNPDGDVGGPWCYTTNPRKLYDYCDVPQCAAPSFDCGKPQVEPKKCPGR
# Sequence (P00747 581-810 limits assumed, species assumed): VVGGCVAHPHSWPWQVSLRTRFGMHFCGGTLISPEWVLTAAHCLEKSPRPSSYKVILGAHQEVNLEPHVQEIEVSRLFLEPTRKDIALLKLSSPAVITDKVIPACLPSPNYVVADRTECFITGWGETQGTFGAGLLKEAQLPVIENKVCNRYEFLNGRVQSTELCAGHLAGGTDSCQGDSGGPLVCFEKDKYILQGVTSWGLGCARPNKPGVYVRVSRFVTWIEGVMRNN
# Method Summary: IC50 against plasmin
# Format: biochemical
# Assay Context: no incubation (first value of cell); read-out: Plasmin no inc

COCCCC(NC(=O)[C@@H]1CCCN1C(=O)[C@H](N)C(c1ccccc1)c1ccccc1)P(=O)(Oc1ccccc1)Oc1ccccc1 (some centres unmarked) ... > 187 µM

// next item, IC50 requested
Field IC50 (system: Plasmin (Homo sapiens, UniProt P00747)) for entry COCCCC(NC(=O)[C@@H]1CCCN1C(=O)[C@H](N)Cc1ccccc1)P(=O)(Oc1ccccc1)Oc1ccccc1 (some centres unmarked) = > 20.9 µM

----------
Reported pIC50 values are given for each entry in this list.
# System: Kalhikrein
# Method Summary: IC50 against kallikrein
# Assay type: biochemical
# Assay Context: single value given, incubation not given; read-out: Kalhikrein no inc/inc
Please treat pIC50 as minus the base-10 logarithm of the molar concentration.

CCC(C)CC(NC(=O)[C@@H]1CCCN1C(=O)[C@@H](Cc1ccccc1)NC(=O)OCc1ccccc1)B1OC2CC3CC(C3(C)C)C2(C)O1 (stereo partly drawn) [Compound 22, Z-D-Phe-Pro-BoroMbg-OPin] ... 4.89
COCCCC(NC(=O)C1CCCN1C(=O)C(Cc1ccccc1)NC(=O)OCc1ccccc1)B1OC2CC3CC(C3(C)C)C2(C)O1 [Compound 50, Z-D-Phe-Pro-BoroMpg-OPin] ... 5.14

Field pIC50 (system: Kalhikrein) for entry N=C(N)NCCCC(NC(=O)C1CCCN1C(=O)C(N)C(c1ccccc1)c1ccccc1)C(=O)CCC(=O)N1CCCCC1.O=C(O)C(F)(F)F.O=C(O)C(F)(F)F [Compound 6, D-Dpa-Pro-Arg--k--Gly-Pip] = 3.70

Field pIC50 (system: Kalhikrein) for entry CC1(C)OB(C(Cc2ccccc2)NC(=O)C2CCCN2C(=O)C(Cc2ccccc2)NC(=O)OCc2ccccc2)OC1(C)C [Compound 41, Z-D-Phe-Pro-BoroPhe-OPinac] = 4.78

Field pIC50 (system: Kalhikrein) for entry CC1(C)C2CC3OB(C(CCCSC(=N)N)NC(=O)C4CCCN4C(=O)C(Cc4ccccc4)NC(=O)OCc4ccccc4)OC3(C)C1C2 [Compound 25, Z-D-Phe-Pro-BoroIrg-OPin] = 6.48

----------
# Target Under Test: Urokinase (Homo sapiens, UniProt P00749)
# Method Summary: IC50 against urokinase
# Type: biochemical
# Assay Context: no incubation (first value of cell); read-out: Urokinase no inc
Experimental Readout: IC50 (µM)
A number alone suffices; assume µM.

Record COCCCC(NC(=O)[C@@H]1CCCN1C(=O)[C@H](N)C(c1ccccc1)c1ccccc1)P(=O)(Oc1ccccc1)Oc1ccccc1 (some centres unmarked) , field IC50: 83

----------
# Target Under Test: Plasmin (Homo sapiens, UniProt P00747)
# Method Summary: IC50 against plasmin
# Type: biochemical
# Assay Context: with incubation (second value of cell); read-out: Plasmin inc
Experimental Readout: pIC50
Please treat pIC50 as minus the base-10 logarithm of the molar concentration.

Record COCCCC(NC(=O)[C@@H]1CCCN1C(=O)[C@H](N)C(c1ccccc1)c1ccccc1)P(=O)(Oc1ccccc1)Oc1ccccc1 (stereo partly drawn) [Compound 32, H-D-Dpa-Pro-Mpg^P(OPh)2] , field pIC50: 5.48

----------
# Target Under Test: human α-thrombin (Homo sapiens)
# Method Summary: biochemical
# Type: biochemical
# Assay Context: human α-thrombin, S-2238, 37° C.; read-out: Ki
In plain terms, low Ki, meaning strictly below 3 µM, gives true, and everything else gives false.

# example entries with known answers
CCCCCC(NC(=O)[C@@H]1CCCN1C(=O)[C@H](N)C(c1ccccc1)c1ccccc1)P(=O)(Oc1ccccc1)Oc1ccccc1 (some centres unmarked) ... true
N=C(N)NCCCC(NC(=O)C1CCCN1C(=O)C(N)Cc1ccc2ccccc2c1)C(=O)CCC(=O)N1CCCCC1 (centres unmarked) ... true
CC(C)(C)OC(=O)NC(C(=O)N1CCCC1C(=O)NC(c1ccccc1)P(=O)(O)O)C(c1ccccc1)c1ccccc1 (centres unmarked) ... false
CCCCCC(NC(=O)[C@@H]1CCCN1C(=O)[C@H](N)C(c1ccccc1)c1ccccc1)P(=O)(O)O (some centres unmarked) ... false

Now for a further molecule.
Consider the molecule O=C(NC(C(=O)N1CCCC1C(=O)NC(c1ccccc1)P(=O)(Oc1ccccc1)Oc1ccccc1)C(c1ccccc1)c1ccccc1)OCc1ccccc1 (centres unmarked) . Is its Ki strictly less than 3 µM?
false

----------
# Target Under Test: bovine thrombin in citrated normal human plasma (Bos taurus, UniProt P00735)
# Construct: freshly prepared bovine thrombin (5 NIHu/ml saline)
# Method Summary: Plasma thrombin time (TT), in vitro
# Format: biochemical
# Assay Context: inhibitor concentration that caused a doubling of the thrombin time
Reported TT values are given for each entry in this list.
A number alone suffices; assume µM.

N=C(N)NCCCC(NC(=O)C1CCCN1C(=O)C(N)C(c1ccccc1)c1ccccc1)C(=O)CCC(=O)N1CCCCC1.O=C(O)C(F)(F)F.O=C(O)C(F)(F)F (stereo not drawn) [Compound 7, L,Dpa-Pro-Arg--k--Gly-Pip] ... 7.5

Field TT (system: bovine thrombin in citrated normal human plasma (Bos taurus, UniProt P00735)) for entry N=C(N)NCCCC(NC(=O)C1CCCN1C(=O)C(N)C(c1ccccc1)c1ccccc1)C(=O)CCC(=O)N1CCCCC1.O=C(O)C(F)(F)F.O=C(O)C(F)(F)F [Compound 6, D-Dpa-Pro-Arg--k--Gly-Pip] = 0.65

Field TT (system: bovine thrombin in citrated normal human plasma (Bos taurus, UniProt P00735)) for entry N=C(N)NCCCC(NC(=O)C1CCCN1C(=O)C(N)C1c2ccccc2-c2ccccc21)C(=O)CCC(=O)N1CCCCC1 (stereo not shown) = 50.0

Field TT (system: bovine thrombin in citrated normal human plasma (Bos taurus, UniProt P00735)) for entry N=C(N)NCCCC(NC(=O)C1CCCN1C(=O)C(N)Cc1ccc2ccccc2c1)C(=O)CCC(=O)N1CCCCC1 [Compound 54, D-β-Nal-Pro-Arg--k--Gly-Pip] = 5.3
